Would you mind telling me the reported melting point of each entry?

Illustrative cases are given below, each with its answer.
> print(dat)
                                   compound      valuekind     assayvalue
1  COc1ccc(-n2nc(N3CCN(C#N)CC3)c3ccccc32)cc1  melting point  118 to 120 °C
2  COc1cc(Cl)nn2c(-c3ccnc(N)c3)c(-c3ccc(F)c(C)c3)nc12  melting point  200 to 201 °C
3       CCn1cc(C(=O)O)c(=O)c2cc(F)c(Cl)nc21  melting point  265 to 267 °C
4  CCOC(=O)C(=CNC1CC1)C(=O)c1cc(F)c(F)cc1Cl  melting point    55 to 58 °C
5  CC(=O)N1c2ccccc2CC1C(N)=S (stereo unspecified)  melting point  194 to 195 °C
6  CCOC(=O)C1C2C1S(=O)(=O)CC2(N)C(=O)OCC (stereo unspecified)  melting point    80 to 83 °C

Could you tell me melting point for each of these compounds? They are listed below.
1. Cc1ccc(Cl)cc1-c1cccc2c1OC(CN)C2 (stereo unspecified)
2. CCN(CC)Cc1nc(-c2ncn3c2[C@@H]2CCCN2C(=O)c2c(Cl)cccc2-3)no1
3. CCOC(=O)C(=CNc1ccn(-c2ccccc2)n1)C(=O)OCC
4. COc1ccc(COC(=O)c2ncn3c2[C@@H]2CCCN2C(=O)c2c(Cl)cccc2-3)cc1

OUT:
146 to 150 °C
151 to 153 °C
81 to 82 °C
185 to 186 °C

// each listed compound needs a value for melting point
1. COC(=O)Cc1coc2cc(C(=O)NC(C(=O)NCc3ccccc3)c3ccccc3)ccc12 (stereo unspecified)
2. Cc1nc(-c2ccc(OC(C)C)c([N+](=O)[O-])c2)sc1C(=O)O
3. CCCOc1ccc(S(=O)(=O)N2CCN(CC)CC2)cc1-c1nc2cc3ncn(Cc4ccccc4)c3cc2c(=O)[nH]1
4. COC(=O)c1ccc(OCCOc2ccccc2)cc1
5. O=c1cc(-c2ccccc2)oc2cccc(OCCCCCCI)c12
6. CC1OC(n2cc(F)c(NC(=O)c3ccccc3)nc2=O)C(OC(=O)c2ccccc2)C1OC(=O)c1ccccc1 (stereo unspecified)

OUT:
1. 129 to 131 °C
2. 211 to 213 °C
3. 135 to 137 °C
4. 92 to 93 °C
5. 166 to 168 °C
6. 158 to 160 °C
